- TARGET UNDER TEST: human BRD4 protein (Homo sapiens (Human))
- PROCEDURE SUMMARY: AlphaScreen assay, BRD4 (bromodomain 1 and 2) with histone H4 peptide
- RUN CONDITIONS: 25 nM BRD4, histone H4 peptide, 8 concentrations (10 nM-10 μM), read-out: BRD4-BD1-BD2 IC50
- Procedure: The interactions between test compounds and BRD4 protein containing both bromodomain 1 and bromodomain 2 were measured with human BRD4 protein with N-terminal His tag (BPS Bioscience, San Diego, Calif.) using AlphaScreen® assay at room temperature. […] Binding measurements were taken in duplicate at each concentration using EnSpire® Alpha Multimode Plate Reader Model 2390 (PerkinElmer). The AlphaScreen data were analyzed using Graphpad Prism (La Jolla, Calif.). […]
pIC50: −log10 of the molar value.
MEASUREMENT LABEL: pIC50

• COc1ccc(Cn2c(=O)c(-c3coc(C)n3)c(OS(=O)(=O)c3ccc(F)cc3)c3cc(Cl)ccc32)cc1 = 6.06
• COc1ccc(Cn2c(=O)c(-c3coc(C)n3)c(OS(=O)(=O)c3ccc(-c4ccccc4)cc3)c3cc(Cl)ccc32)cc1 = 6.23
• CSc1nsc(Sc2c(-c3ccccc3)c3ccc(Cl)cc3[nH]c2=O)n1 = 4.63
• O=c1[nH]c2ccc(Cl)cc2c(-c2ccccc2)c1-c1cc(-c2ccccc2)[nH]c(=S)n1 = 5.84

---

- TARGET UNDER TEST: human BRD4 protein (Homo sapiens (Human))
- PROCEDURE SUMMARY: AlphaScreen assay, BRD4 (bromodomain 1 and 2) with histone H4 peptide
- RUN CONDITIONS: 25 nM BRD4, histone H4 peptide, 8 concentrations (10 nM-10 μM), read-out: BRD4-BD1-BD2 IC50
pIC50: −log10 of the molar value.
So basically, the class depends on measured pIC50, and the ranges are lower segment = under 5, middle segment = from 5 up to 6, upper segment = 6 and over

* COc1ccc(Cn2c(=O)c(-c3coc(C)n3)c(OS(=O)(=O)c3ccc4ccccc4c3)c3cc(Cl)ccc32)cc1 | upper segment
* COc1ccc(-c2cc(=O)[nH]c(Sc3c(-c4ccccc4)c4cc(Cl)ccc4[nH]c3=O)n2)cc1 | middle segment
* CCN(CC)C(=S)Sc1c(-c2ccccc2)c2cc(Cl)ccc2[nH]c1=O | lower segment
* O=C(/C=C/c1ccccc1)c1c(-c2ccccc2)c2cc(Cl)ccc2[nH]c1=O | middle segment
* CNC(=S)N1N=C(c2c(-c3ccccc3)c3cc(Cl)ccc3[nH]c2=O)CC1c1ccccc1 (stereo not drawn) | lower segment
* Cc1ccc(-c2nnc(Sc3c(-c4ccccc4)c4cc(Cl)ccc4[nH]c3=O)n2N)cc1 | middle segment
* COc1ccc(Cn2c(=O)c(-c3coc(C)n3)c(OS(=O)(=O)c3ccccc3)c3cc(Cl)ccc32)cc1 | upper segment
* C=CCn1c(Sc2c(-c3ccccc3)c3cc(Cl)ccc3[nH]c2=O)nnc1-c1cccs1 | middle segment
* COc1ccc(Cn2c(=O)c(-c3coc(C)n3)c(OS(=O)(=O)c3ccc(C)cc3)c3cc(Cl)ccc32)cc1 | upper segment
* O=c1[nH]c2cc(Cl)ccc2c(-c2ccccc2)c1Sc1nc2ccccc2s1 | lower segment
* O=c1[nH]c2ccc(Br)cc2c(-c2ccccc2)c1-c1cc(-c2ccccc2)[nH]c(=S)n1 | upper segment

---

Collected pIC50 values appear next to each entry.
- Tested on: MV4-11 acute myeloid leukemia cells
- PROCEDURE SUMMARY: In vitro cell viability (AlamarBlue), MV4-11
- Format: cell-based
- RUN CONDITIONS: Homo sapiens, MV4-11 cells, 72-hour incubation, read-out: In Vitro Cell Viability (IC50) MV4-11 Cells (AML)
pIC50: −log10 of the molar value.
MEASUREMENT LABEL: pIC50

- CN(C)c1ccc(/C=C/C(=O)c2c(-c3ccccc3)c3cc(Cl)ccc3[nH]c2=O)cc1: 4.99
- CCN(CC)CCCNC(=O)C1CCCN(c2c(-c3ccccc3)c3cc(Cl)ccc3[nH]c2=O)C1 (centres unmarked): 5.26
- O=C(/C=C/c1cccs1)c1c(-c2ccccc2)c2cc(Cl)ccc2[nH]c1=O: 5.64
- O=C(/C=C/c1ccccc1)c1c(-c2ccccc2)c2cc(Br)ccc2[nH]c1=O: 5.52
- COc1ccc(OC)c(/C=C/C(=O)c2c(-c3ccccc3)c3cc(Br)ccc3[nH]c2=O)c1: 5.76
- Cc1cncc(F)c1/C=C/C(=O)c1c(-c2cccnc2)c2cc(Cl)ccc2[nH]c1=O: 6.40
- O=C(/C=C/c1ccccc1)c1c(-c2ccccc2)c2cc(Cl)cnc2[nH]c1=O: 6.15
- O=C(/C=C/c1c(F)cccc1Cl)c1c(-c2ccncc2)c2cc(Cl)ccc2[nH]c1=O: 5.93

---

- TARGET UNDER TEST: human BRD4 protein (Homo sapiens (Human), UniProt O60885)
- PROCEDURE SUMMARY: AlphaScreen assay, BRD4 (bromodomain 1 and 2) with histone H4 peptide
- Type: binding
- RUN CONDITIONS: test compounds assayed at 10 μM or 31.6 μM for screening
MEASUREMENT LABEL: BRD4-BD1-BD2 % Inhibition (%)

- O=c1[nH]c2ccc(Cl)cc2c(-c2ccccc2)c1SC(=S)N1CCOCC1 [Compound 121]: 68
- CSc1nsc(Sc2c(-c3ccccc3)c3ccc(Cl)cc3[nH]c2=O)n1 [Compound 126]: 50
- Cc1ccc(-c2nnc(Sc3c(-c4ccccc4)c4cc(Cl)ccc4[nH]c3=O)n2N)cc1 [Compound 132]: 92
- C=CCn1c(Sc2c(-c3ccccc3)c3cc(Cl)ccc3[nH]c2=O)nnc1-c1cccs1 [Compound 97]: 59

---

- Tested on: MV4-11 acute myeloid leukemia cells
- PROCEDURE SUMMARY: In vitro cell viability (AlamarBlue), MV4-11
- Assay type: cell-based
- RUN CONDITIONS: Homo sapiens, MV4-11 cells, 72-hour incubation, read-out: In Vitro Cell Viability (IC50) MV4-11 Cells (AML)
pIC50: −log10 of the molar value.
Quick rule for you: pIC50 at 6 or higher means YES, lower means NO.

• COc1ccc(/C=C/C(=O)c2c(-c3ccccc3)c3cc(Cl)ccc3[nH]c2=O)cc1OC = NO
• Cc1nc(-c2c(N3CCCC3)c3cc(Cl)ccc3[nH]c2=O)co1 = NO
• O=C(/C=C/c1ccccc1)c1c(-c2ccccc2)c2cc(Cl)ccc2[nH]c1=O = YES
• O=C(/C=C/c1ccc2c(c1)OCCO2)c1c(-c2ccccc2)c2cc(Br)ccc2[nH]c1=O = NO

---

- TARGET UNDER TEST: human BRD4 protein (Homo sapiens (Human))
- PROCEDURE SUMMARY: AlphaScreen assay, BRD4 (bromodomain 1 and 2) with histone H4 peptide
- Type: binding
- RUN CONDITIONS: test compounds assayed at 10 μM or 31.6 μM for screening
MEASUREMENT LABEL: BRD4-BD1-BD2 % Inhibition (%)

• COc1ccc(OC)c(NCc2c(OC)ccc3ccccc23)c1 [Compound 143] = 99
• COc1ccc(Cn2c(=O)c(-c3coc(C)n3)c(OS(=O)(=O)c3ccc(C)cc3)c3cc(Cl)ccc32)cc1 [Compound 83] = 99
• COc1ccc(Cn2c(=O)c(-c3coc(C)n3)c(OS(=O)(=O)c3cccc4cccnc34)c3cc(Cl)ccc32)cc1 [Compound 88] = 98

---

Entries and their pIC50
- TARGET UNDER TEST: UniProt O60885
- PROCEDURE SUMMARY: AlphaScreen assay, BRD4 (bromodomain 1 and 2) with histone H4 peptide
- RUN CONDITIONS: 25 nM BRD4, histone H4 peptide, 8 concentrations (10 nM-10 μM), read-out: BRD4-BD1-BD2 IC50
pIC50: −log10 of the molar value.
MEASUREMENT LABEL: pIC50

• COc1ccc(Cn2c(=O)c(-c3coc(C)n3)c(OS(=O)(=O)c3cccc4cccnc34)c3cc(Cl)ccc32)cc1 [Compound 88] = 6.06
• COc1ccc(Cn2c(=O)c(-c3coc(C)n3)c(OS(=O)(=O)c3ccc(Cl)cc3)c3cc(Cl)ccc32)cc1 [Compound 86] = 6.17
• O=c1[nH]c2ccc(Cl)cc2c(-c2ccccc2)c1SC(=S)N1CCOCC1 [Compound 121] = 5.14
• Cc1noc(C)c1-c1ccc2[nH]c(=O)c(C(=O)/C=C/c3ccccc3)c(-c3cccnc3)c2c1 [Compound 90] = 4.95
